Measured values drawn from patent CN114989293A for this set.

target: 新冠病毒(SARS-CoV-2) S蛋白受体结合域 RBD (SARS-CoV-2, UniProt P0DTC2 319-541); experiment: ELISA, antigen coated at 2 μg/mL, 293T supernatant, anti-human IgG-ALP detection

- BINDER: "单抗12-CQTS077 (antibody, V domains shown) VH: EVQLVESGGGVVQPGGSLRLSCAASGFTFDDYAMNWVRQAPGKGLEWVSLISGDGDSPSYSGSVKGRFTISRDNSKNSLYLQMISLRTEDTALYYCARESPKLTGYFDYWGQGTLVTVSS VL: SYVLTQPPSVSVAPGQTAGITCGGDDIGSKNVHWYQQKPGQAPVLVVYDDHDRPSGIPERFSGSNSGNTATLTISRVEAGDEADYYCQVWDSSSDPYVFGTGTKVTVL"
  binding result: "binds"
- BINDER: "单抗17-CQTS082 (antibody, V domains shown) VH: EVQLVQSGAEVKKPGESLKISCKGSGYSFSTYWIGWVRQMPGKGLEWMGIIYPYDSDTRYSPSFQGQVTISADKSISTAYLQWSSLKASDTAIYYCARQESGWSFDYWGQGTLVTVSS VL: DIQMTQSPSSLSASVGDRVTITCRASQNINKYLNWYQQKPGKAPKLLIYVASSLQSGVPSRFSGSGSGTDFTLTISSLQPEDFATYYCQQSYSTPRTFGQGTKVEIK"
  binding result: "binds"
